Data origin, for the record: the nanobody polyreactivity screen of Harvey et al. (2022)

Experiment: yeast display, Sf9 membrane polyspecificity reagent, FACS + sequencing; frameworks hold sequencing errors
readout-label: polyreactivity (PSR sort gate)

QVQHVESGGGLVQAGGSLRLSCAASGSIFVRNAMGWYRQAPGKEREFVAAISRSGDSTNYADSVKGRFTISRDNAKNTVYLQMNSLKPEETAVYYCAVGYRYLKWVDYWGQGTQVTVSS
high polyreactivity
QVQLVESGGGLVQAGGSLRLSCAASGSTFPSNAMGWYRQAPGKERELVAAISSGGRTYYADSVKGRFTISRDNAKNTVYLQMKSLKPEDTAVYYCAADTDRRSPFDYWGQGTQVTVSS
high polyreactivity
QVQLVESGGGLVQAGGSLRLSCAASGRIFYANVMGWYRQAPGKEREFVSAIRWSGGRSYYADSVKGRFTISRDNAKYTVYLQMNSLKPEDTAVYYCAADGRVQSPQKFGYDYWGQGTQVTVSS
low polyreactivity
QVQLVESGGGLVQAGGSLRLSCAASGSIFSGYAMGWYRQAPGKERELVAAISRRGTSTYYADSVKGRFTISRDNAKNTVYLQMNSLKPEDTAVYYCAATYGGRQSYGGFDYWGQGTQVTVSS
high polyreactivity
QDQRVDSGGGLVQAGGSLRLSCTAYGFIFGWYAMGWYRQSPGKASQLVAPISQSVGSTYYADSVKGRFTISRDNAKNTVYLQMNSLKPEDSAVYYCNAVGRGSRSRLSSRAGGGDYWGQGTQVTVSS
high polyreactivity

Would you be so kind as to report polyreactivity (PSR sort gate) for each listed record?
1. QVQLVESGAGLVQAGVSLRLSCAASGRIFYYYTMGWYRHAPGKERELVASITIGDSTYYADSVKGRFTISRDNAKNTVYLQMNSLKPEDTAVYYCAAVKTVDVGYDYWGQGTQVTVSS
2. QVQLVESGGGLVQAGGSLRLSCAASGNTVNFYAMGWYREAPGKERELVASITSGGGTNYADSVKGRFTISRDNAKNTVYLQMNSLKPEETAVYFCAAQFYYHFRFHCDWGQGTQVTVSS
3. QVQLVESGGGLVQAGGSLRLSCAASGSTFQGYAMGWYRQAPGKERELVAVINRSGTNTYYADSVKGRFTISRDNAKNTVYLQMNSLKPEDTAVYYCNAQPSSKPPTYYYWGQGTQVTVSS
4. QVQLEESGGGLVQAGGSHRLSCAASGIIFRWYTMGWYRQAPGKERELVAAISTSTGSTYYADSVKGRFTISRDNAKNTVYLQMNSLKPEDTGVYYCAAEYAYWNYESYYWGQGTQVNVSS
5. QVQLVESGGGLVQAGGSLRLSSAASGSTFYWYTMGWYRQAPGKERELVARISKRGGSTYYADSVKGRFTISRDNAKNTVYLQMNSLKPEDTAVYYCNATSRTVGFGYWGQGTQVTVSS
6. QVQLVESGGGLVQAGGSLRLSCAASGSIFNYNMGWYRQAPGKERELVAAVSTNYADTVKGRFTISRDNAKNTVYLQMNSLKPEDTAVYYCGVTPEKSGDEYDYGGQGTQVTVSS

low polyreactivity
low polyreactivity
high polyreactivity
high polyreactivity
high polyreactivity
low polyreactivity

###

Test: yeast display, Sf9 membrane polyspecificity reagent, FACS + sequencing; frameworks hold sequencing errors
readout-label: polyreactivity (PSR sort gate)

QVHLVESGGGLVQAGGSLRLSCAASGSTFYRYAMGWYRQAPGKERELVAAITRSGGSTYYADSVKGRFTISRDNAKNTVYLLMNSLKPEDTAVYYCAADRYYVYTFYYWGQGTQVTVSS
high polyreactivity
QVQLVESGGGLVQAGGSLRLSCAASGSIFGKYTMGWYRQAPGKERELVAAISRSGSSTYYADSVKGRFTISRDNAKNTVYLQMNSLKPEDTAVYYCAAKFYYGVTSKFESWGQGTQVTVSS
high polyreactivity

###

Test: yeast display, Sf9 membrane polyspecificity reagent, FACS + sequencing; frameworks hold sequencing errors
readout-label: polyreactivity (PSR sort gate)

QVQLVESGGGLVQAGGSLRLSCAASGSIFYGYAMGWYRQAAGKERELVARITGSGGDTSYADSVKGRFTISRDNSKNTVYLQMNSLKPEDTALYYCNTDLYITYTLYTGSEYDYWGQGTQVTVSS
low polyreactivity
QVQLVESGGGLVQAGGSLRLSCAASGSTFIYYTMGWYRQAPGKERELVAAIPSSGGSTYYADSVKGRFTISRDNAKNTVYLQMNSLKPEDTAVYYCAADGTYIKFAKLYRRYDYWGQGTLVTVSS
low polyreactivity

###

Assay: yeast display, Sf9 membrane polyspecificity reagent, FACS + sequencing; frameworks hold sequencing errors
readout-label: polyreactivity (PSR sort gate)

QVQLVESGGGLVPAGGSLRLSCASSGIIFWVNAMGWYRQAPGNERELVAAIRSDGSTKYADSVKRRFTISRDKAKNTVYVQMNSLKPVDTALYYCAKRDYSYPWFRDYYYWGQGTKVTVSS
low polyreactivity
QVQLVESAGGLVQAGGSLRLSCAASGRIFSPYAMGWYRQAPGKERELVAAIDWDGGGTYYADSVKGRFTISRDNAKNTVYLQMNSLKPEDTAVYYCAAETDLANGTSPSDYWGQGTQVTVSS
low polyreactivity
QVQHVESGGGLVQAGGSLRLSCAASGSTFGRNAMGWYRQAPGKERELVAAINWSDGSTHYADSVKGRFTISRDNAKNTVYLQMNSLKPEDTAVYYCGADAWSWPVDYNYWGQGTQVTVSS
low polyreactivity
QVQLQESGGGLVQAGGSLRLSCAASGSITRYYDMGWYRQAPGKEREFVAGISGGAITYYADSLKGRFTISRDNAKNTVYLQMNSLKPEDTAVYYCAADTGVYQYHSYWGQGTQVTVSS
low polyreactivity

###

Assay: yeast display, Sf9 membrane polyspecificity reagent, FACS + sequencing; frameworks hold sequencing errors
readout-label: polyreactivity (PSR sort gate)

QVQLVESGGGLVQAGGSLRLSCAASGAIFGFYAMGWYRQAAGKERELVADITFSVGSTNYADSVKGRFTISRDNAKNTVYLQRNSLKPEDTAVYYCAVANVYYEGYDYWGQGTQVTVSS
low polyreactivity
QDQLVESVGGLVQAGGSLRLSCAASGSTIVRNAMGWYRQPPGKERELVAAISVDSGSTYYADSVKGRFTISRDNAKNTVYLQMNSLKPEDTAVYYCAADGTRGQEYDYWGQGTLVTVSS
low polyreactivity

###

Assay: yeast display, Sf9 membrane polyspecificity reagent, FACS + sequencing; frameworks hold sequencing errors
readout-label: polyreactivity (PSR sort gate)

QVQLVESGGGLVQAGGSLRLSCAASGSTFQTNAMGWYRQAPGKERELVAAINSGGGTNYADSVKGRFTFSRDNAKYTVYLQMNSLKPEDSAVYYCAAAYFDFWGWLHDYWGQGTQVTVSS
low polyreactivity
QVQLVDSGGGLVQAGGSLRLSCAASGSIFYVNAMGWYRQAPGKERELVASITQSGGSTYYADSVKRRFTISRDNAKNTVDLQMNILKPEDTSVYYCNADIHVYPTRTRYYYWGQGTQVTVSS
low polyreactivity

###

Assay: yeast display, Sf9 membrane polyspecificity reagent, FACS + sequencing; frameworks hold sequencing errors
readout-label: polyreactivity (PSR sort gate)

QVQLVESGGGLVQAGGSLRLSCAASGSTFTPYAMGWYRQAPAKERELVAAITSGGPTNYADSVKGRFTISRDNAKNTVYLQMNSLKPEDTAVYYCNAEYLYWWEIYDYWGQGNQVTVSS
high polyreactivity
QVQLVESGGGLVQAGGSLRLSCAASGYIFVKNAMGWYRQAPGTERELVAAISTRGGRTYYADSVKGRFTISRDNAKNTVYLQMNSLKPEDTAVYYCAAVHQTSYYDANSYGYWGQGTQVTVSS
high polyreactivity
QVQLVESGGGLVQAVGSLRLSCAASGSTFNRYALGWYRQAPGKERQLVAAITVRGNTYYADSVKGRFTISRDNAKNTVYLQMNSLKPEDTAVYYCAARIYYLYKDRRLGYYWGQGTQVTVSS
high polyreactivity
QVQLVESGGGLVQAGGSLRLSCAASGRTFGYNAMGWYRQAPGKERELVAAIRTIGDSTYYADSVKGRFTISRDNAKNTVYLQMNSLKPEDTAVYYCAARKLRSRYDYWGQGTQVTVSS
high polyreactivity
QVQLVESGGGLVQAGGSLRLSCAASGSIFGRYTMGWYRQAPGKERELVARIRSGGTTYYADSVKGRFTISRDNAKNTVYLQMNSLKPEDTAVYYCAAGRDARDYYSWGQGTQVTVSS
high polyreactivity

Each of the following entries comes with a recorded value; kindly state polyreactivity (PSR sort gate) for each.
1. QVQLVESGGGLVQAGGSLRLSCAASGSIFSYYAMGWSRQEHGKERELVAAITRSGSTNYADSVKGRFTISRDNAKNTVYLQMNSLKPEDTAVYYCARRHYSSRVIYVSSKGGYWGQGTQVTVSS
2. QVQLVESGGRLVQAGGSLRLSCAASGRIFWWNAMGWYRQAPGKERQFVAAISYRGGSTYYADSVKGRFTISRDNAKNTVYLQMNSLKPEDTAVYYCAADWTYVGPSYSYYYWGQGTQVTVSS
3. QVQLVESGGGLVQAGGSLRLSCAASGITFFTYAMGWYRQAPGKERELVAAISGSGGSTYYADSVKGRFTISRDNAKNTVYLQMNSLKPEDTAVYYCATDTGYPYSYDLYDSYYWGQGTQVTVSS
4. QVQLVESGGGLVQAGGSLRLSCAASGITFVYNDMGSYRQAPGKESELVAAISWRGGSTYYADSVKGRFTISRDNAKNTVYLQMNSLKPEDTAVYYCNKLPTYPEYGYDSWGQGTQVTVSS

1. high polyreactivity
2. low polyreactivity
3. low polyreactivity
4. high polyreactivity

// for each sequence in input: emit polyreactivity (PSR sort gate)
1. QVQLVESGGGLVQAGGSLRLSCAASGFTLSNNAMGWYRQAPGKERELVAGLTSGGDSTNYADSVKGRFTISRDNAKNTVYLQMNSLKREDTAVYDCAAQGGTNTPGVVESDYWGQGTQVTVSS
2. QVQLVESGGGLVQAGGSLRLSCAASGRIFFLYAMGWYRQAPGKERELVASITRRGGSTYYADSVKGRVTISRDNAKNTVYLQMTSLKPEDTAVYYCAAELYRSNVYHYDYWGQGTQVTVSS

1: low polyreactivity; 2: high polyreactivity
